Procedure Summary: Effective permeability of the compound by PAMPA assay
Format: ADME
Parameters: unit not given here
Endpoint Name: log Pe

>  <Entry Smiles>
COC(=O)c1cccc(-c2ccc(O[C@H]3O[C@H](CO)[C@@H](O)[C@H](O)[C@@H]3O)c(Cl)c2)c1

>  <Endpoint Name>
log Pe

>  <Test Value>
-4.29

$$$$
>  <Entry Smiles>
COC(=O)c1cccc(-c2ccc(O[C@H]3O[C@H](CO)[C@@H](O)[C@H](O)[C@@H]3O)cc2)c1

>  <Endpoint Name>
log Pe

>  <Test Value>
-5.42

$$$$
>  <Entry Smiles>
COC(=O)c1cccc(-c2ccc(O[C@H]3O[C@H](CO)[C@@H](O)[C@H](O)[C@@H]3O)c(C(F)(F)F)c2)c1

>  <Endpoint Name>
log Pe

>  <Test Value>
-3.91

$$$$
>  <Entry Smiles>
CNC(=O)c1cc(C(=O)NC)cc(-c2ccc(O[C@H]3O[C@H](CO)[C@@H](O)[C@H](O)[C@@H]3O)cc2)c1

>  <Endpoint Name>
log Pe

>  <Test Value>
-4.51

$$$$

====

Tested on: Escherichia coli
Procedure Summary: Inhibition of Escherichia coli FimH-mediated hemagglutinination of human red blood cells assessed as drug level required for > 90% inhibition of hemagglutinination after 30 mins by hemagglutinination inhibition assay
Endpoint Name: EC>90 (µM)

>  <Entry Smiles>
COC(=O)c1csc(-c2ccc(O[C@H]3O[C@H](CO)[C@@H](O)[C@H](O)[C@@H]3O)cc2)c1

>  <Units Label>
µM

>  <Test Value>
2

$$$$
>  <Entry Smiles>
COC(=O)c1cccc(-c2ccc(O[C@H]3O[C@H](CO)[C@@H](O)[C@H](O)[C@@H]3O)c(Cl)c2)c1

>  <Units Label>
µM

>  <Test Value>
0.03

$$$$
>  <Entry Smiles>
COC(=O)c1cccc(-c2ccc(O[C@H]3O[C@H](CO)[C@@H](O)[C@H](O)[C@@H]3O)c(C(F)(F)F)c2)c1

>  <Units Label>
µM

>  <Test Value>
0.03

$$$$
>  <Entry Smiles>
COC(=O)c1cccc(-c2ccc(O[C@H]3O[C@H](CO)[C@@H](O)[C@H](O)[C@@H]3O)cc2C(=O)OC)c1

>  <Units Label>
µM

>  <Test Value>
1

$$$$
>  <Entry Smiles>
OC[C@H]1O[C@H](Oc2ccc(-c3ccc4ccncc4c3)cc2)[C@@H](O)[C@@H](O)[C@@H]1O

>  <Units Label>
µM

>  <Test Value>
0.75

$$$$
>  <Entry Smiles>
O=C(NCCO)c1cccc(-c2ccc(O[C@H]3O[C@H](CO)[C@@H](O)[C@H](O)[C@@H]3O)cc2)c1

>  <Units Label>
µM

>  <Test Value>
0.5

$$$$
>  <Entry Smiles>
CNC(=O)c1cccc(-c2ccc(O[C@H]3O[C@H](CO)[C@@H](O)[C@H](O)[C@@H]3O)cc2)c1

>  <Units Label>
µM

>  <Test Value>
0.5

$$$$
>  <Entry Smiles>
CNC(=O)c1cc(C(=O)NC)cc(-c2ccc(O[C@H]3O[C@H](CO)[C@@H](O)[C@H](O)[C@@H]3O)c(C)c2)c1

>  <Units Label>
µM

>  <Test Value>
0.016

$$$$

====

Procedure Summary: Drug level in mouse urine at 100 mg/kg, po measured after 6 hrs
Type: ADME, organism-based
Set-up: dose 100 mg/kg, route oral
Conditions: read-out: Drug uptake

>  <Entry Smiles>
CNC(=O)c1cc(C(=O)NC)cc(-c2ccc(O[C@H]3O[C@H](CO)[C@@H](O)[C@H](O)[C@@H]3O)cc2)c1

>  <Units Label>
µM

>  <concentration at 6 h>
4.85

$$$$

====

Tested on: Escherichia coli
Procedure Summary: Inhibition of Escherichia coli FimH-mediated hemagglutinination of human red blood cells assessed as drug level required for > 90% inhibition of hemagglutinination after 30 mins by hemagglutinination inhibition assay
Measured log10 EC>90 values are reported for all entries that follow.
Endpoint Name: log10 EC>90 (log10 of the value in µM)

>  <Entry Smiles>
CN1CCN(C(=O)c2cccc(-c3ccc(O[C@H]4O[C@H](CO)[C@@H](O)[C@H](O)[C@@H]4O)cc3)c2)CC1

>  <log10 EC>90>
0.60

$$$$
>  <Entry Smiles>
COC(=O)c1cccc(-c2ccc(O[C@H]3O[C@H](CO)[C@@H](O)[C@H](O)[C@@H]3O)c(OC)c2)c1

>  <log10 EC>90>
-0.72

$$$$
>  <Entry Smiles>
COC(=O)c1ccc(-c2ccc(O[C@H]3O[C@H](CO)[C@@H](O)[C@H](O)[C@@H]3O)cc2)s1

>  <log10 EC>90>
0.00

$$$$
>  <Entry Smiles>
CNC(=O)c1cccc(-c2ccc(O[C@H]3O[C@H](CO)[C@@H](O)[C@H](O)[C@@H]3O)c(C(F)(F)F)c2)c1

>  <log10 EC>90>
-1.52

$$$$
>  <Entry Smiles>
COC(=O)c1cc(-c2ccc(O[C@H]3O[C@H](CO)[C@@H](O)[C@H](O)[C@@H]3O)cc2)ccn1

>  <log10 EC>90>
-0.30

$$$$

====

Test system: Escherichia coli
Procedure Summary: Inhibition of Escherichia coli FimH-mediated hemagglutinination of human red blood cells assessed as drug level required for > 90% inhibition of hemagglutinination after 30 mins by hemagglutinination inhibition assay
Measured log10(EC>90) values are reported for all entries that follow.
Endpoint Name: log10(EC>90) (log10 of the value in µM)

>  <Entry Smiles>
O=C(c1cccc(-c2ccc(O[C@H]3O[C@H](CO)[C@@H](O)[C@H](O)[C@@H]3O)cc2)c1)N1CCNCC1

>  <Assayed System>
Escherichia coli

>  <log10(EC>90)>
0.60

$$$$
>  <Entry Smiles>
O=C(Nc1ccncc1)c1cccc(-c2ccc(O[C@H]3O[C@H](CO)[C@@H](O)[C@H](O)[C@@H]3O)cc2)c1

>  <Assayed System>
Escherichia coli

>  <log10(EC>90)>
-0.60

$$$$
>  <Entry Smiles>
COC(=O)c1cncc(-c2ccc(O[C@H]3O[C@H](CO)[C@@H](O)[C@H](O)[C@@H]3O)cc2)c1

>  <Assayed System>
Escherichia coli

>  <log10(EC>90)>
-0.72

$$$$
>  <Entry Smiles>
CNC(=O)c1cc(C(=O)NC)cc(-c2ccc(O[C@H]3O[C@H](CO)[C@@H](O)[C@H](O)[C@@H]3O)c(C(F)(F)F)c2)c1

>  <Assayed System>
Escherichia coli

>  <log10(EC>90)>
-2.10

$$$$
>  <Entry Smiles>
O=c1[nH]ccc2ccc(-c3ccc(O[C@H]4O[C@H](CO)[C@@H](O)[C@H](O)[C@@H]4O)cc3)cc12

>  <Assayed System>
Escherichia coli

>  <log10(EC>90)>
-1.00

$$$$
>  <Entry Smiles>
OC[C@H]1O[C@H](Oc2ccc(-c3cccc4cnccc34)cc2)[C@@H](O)[C@@H](O)[C@@H]1O

>  <Assayed System>
Escherichia coli

>  <log10(EC>90)>
-0.60

$$$$
>  <Entry Smiles>
COC(=O)c1cccc(-c2ccc(O[C@H]3O[C@H](CO)[C@@H](O)[C@H](O)[C@@H]3O)c(F)c2)c1

>  <Assayed System>
Escherichia coli

>  <log10(EC>90)>
-0.12

$$$$
>  <Entry Smiles>
OC[C@H]1O[C@H](Oc2ccc(-c3ccc4ncncc4c3)cc2)[C@@H](O)[C@@H](O)[C@@H]1O

>  <Assayed System>
Escherichia coli

>  <log10(EC>90)>
-0.42

$$$$
>  <Entry Smiles>
NCCNC(=O)c1cccc(-c2ccc(O[C@H]3O[C@H](CO)[C@@H](O)[C@H](O)[C@@H]3O)cc2)c1

>  <Assayed System>
Escherichia coli

>  <log10(EC>90)>
0.48

$$$$
>  <Entry Smiles>
COC(=O)c1cccc(-c2ccc(O[C@H]3O[C@H](CO)[C@@H](O)[C@H](O)[C@@H]3O)c(C)c2)c1

>  <Assayed System>
Escherichia coli

>  <log10(EC>90)>
-0.92

$$$$
>  <Entry Smiles>
NC(=O)Nc1csc(-c2ccc(O[C@H]3O[C@H](CO)[C@@H](O)[C@H](O)[C@@H]3O)cc2)c1

>  <Assayed System>
Escherichia coli

>  <log10(EC>90)>
0.00

$$$$
>  <Entry Smiles>
O=C(Nc1cccnc1)c1cccc(-c2ccc(O[C@H]3O[C@H](CO)[C@@H](O)[C@H](O)[C@@H]3O)cc2)c1

>  <Assayed System>
Escherichia coli

>  <log10(EC>90)>
-0.43

$$$$
>  <Entry Smiles>
COC(=O)c1sc(-c2ccc(O[C@H]3O[C@H](CO)[C@@H](O)[C@H](O)[C@@H]3O)cc2)cc1NC(N)=O

>  <Assayed System>
Escherichia coli

>  <log10(EC>90)>
-1.70

$$$$
>  <Entry Smiles>
OC[C@H]1O[C@H](Oc2ccccc2)[C@@H](O)[C@@H](O)[C@@H]1O

>  <Assayed System>
Escherichia coli

>  <log10(EC>90)>
1.48

$$$$
>  <Entry Smiles>
CNC(=O)c1cccc(-c2ccc(O[C@H]3O[C@H](CO)[C@@H](O)[C@H](O)[C@@H]3O)c(Cl)c2)c1

>  <Assayed System>
Escherichia coli

>  <log10(EC>90)>
-0.92

$$$$
>  <Entry Smiles>
CNC(=O)c1cccc(-c2ccc(O[C@H]3O[C@H](CO)[C@@H](O)[C@H](O)[C@@H]3O)c(C)c2)c1

>  <Assayed System>
Escherichia coli

>  <log10(EC>90)>
-1.22

$$$$

src = ChEMBL document CHEMBL2057137
